# protocol-summary: Apparent permeability of the compound across basolateral to apical side in human Caco-2 cells at 10 uM incubated for 120 mins and measured by LC-MS/MS analysis
parameter: Papp B→A at 2 h, 10 µM (×10⁻⁶ cm/s)

P. C[C@H]1O[C@@H](O[C@H]2[C@@H](O)C[C@H](O[C@H]3[C@@H](O)C[C@H](O[C@H]4CC[C@@]5(C)[C@H](CC[C@@H]6[C@@H]5C[C@@H](O)[C@]5(C)[C@@H](C7=CC(=O)OC7)CC[C@]65O)C4)O[C@@H]3C)O[C@@H]2C)C[C@H](O)[C@@H]1O
Q. CC(C)NCC(O)COc1cccc2ccccc12 (configuration not stated)
Select the item whose Papp B→A at 2 h, 10 µM value is smaller, choosing between P and Q . # reply format: chosen label
P

* * *

# protocol-summary: Efflux ratio of apparent permeability from basolateral to apical side over apical to basolateral side in human Caco-2 cells at 10 uM incubated for 120 mins and measured by LC-MS/MS analysis
parameter: efflux ratio at 2 h, 10 µM
Could you respond with only the numeric value?

Which value of efflux ratio at 2 h, 10 µM has been reported for C[C@H]1O[C@@H](O[C@H]2[C@@H](O)C[C@H](O[C@H]3[C@@H](O)C[C@H](O[C@H]4CC[C@@]5(C)[C@H](CC[C@@H]6[C@@H]5C[C@@H](O)[C@]5(C)[C@@H](C7=CC(=O)OC7)CC[C@]65O)C4)O[C@@H]3C)O[C@@H]2C)C[C@H](O)[C@@H]1O in the records?
9.69
